target: PI3-kinase p110-alpha/p85-alpha (Homo sapiens); assay: null: The kinase activity was measured by using the commercial ADP Hunter Plus assay available from DiscoveRx (#33-016), which is a homogeneous assay to measure the accumulation of ADP, a universal product of kinase activity. […] The reaction was carried out for 1 hour at 25° C. Reagent A and B were sequentially added to the wells and plates were incubated for 30 min at 37° C. Fluorescence counts were read in a Victor instrument (Perkin Elmer) with the recommended settings (544 and 580 nm as excitation and emission wavelengths, respectively).; assay type: protein-complex assay
Observation Type: IC50 (µM)
One number for each entry, in µM.

Some entries whose results are on file:
>  <Molecule>
COc1ccc(-c2nc3c(c(C4(S(C)(=O)=O)CCOCC4)n2)OCC2COCCN32)c2cc[nH]c12 (centres undefined)

>  <Units Symbol>
µM

>  <Assay Value>
16.9

$$$$
>  <Molecule>
CC(C)(O)c1nc(-c2cc(F)cc3[nH]ccc23)nc2c1OC[C@@H]1COCCN21

>  <Units Symbol>
µM

>  <Assay Value>
2.27

$$$$
>  <Molecule>
CC(C)(c1nc(-c2cccc3[nH]ncc23)nc2c1OC[C@H]1COCCN21)S(C)(=O)=O

>  <Units Symbol>
µM

>  <Assay Value>
0.4

$$$$
>  <Molecule>
CS(=O)(=O)C1(c2nc(-c3cccc4[nH]ccc34)nc3c2OC[C@@H]2COCCN32)CCOCC1

>  <Units Symbol>
µM

>  <Assay Value>
4.9

$$$$
>  <Molecule>
CC(C)(c1nc(-c2cccc3[nH]ccc23)nc2c1OCC1COCCN21)S(=O)(=O)C1CC1 (centres undefined)

>  <Units Symbol>
µM

>  <Assay Value>
2.4

$$$$
>  <Molecule>
CS(=O)(=O)C1(c2nc(-c3c(F)ccc4[nH]ccc34)nc3c2OCC2COCCN32)CCOCC1 (centres undefined)

>  <Units Symbol>
µM

>  <Assay Value>
21

$$$$

--- query ---
query: I would be grateful if you could share the reported IC50 for CC(C)(C#N)c1nc(-c2cccc3[nH]ccc23)nc2c1OCC1COCCN21 (centres undefined) .
result: 1.67

* * *

target: PI3-kinase p110-alpha/p85-alpha (Homo sapiens, UniProt P42336); experiment: null: The kinase activity was measured by using the commercial ADP Hunter Plus assay available from DiscoveRx (#33-016), which is a homogeneous assay to measure the accumulation of ADP, a universal product of kinase activity. […] The reaction was carried out for 1 hour at 25° C. Reagent A and B were sequentially added to the wells and plates were incubated for 30 min at 37° C. Fluorescence counts were read in a Victor instrument (Perkin Elmer) with the recommended settings (544 and 580 nm as excitation and emission wavelengths, respectively).
Sequence (P27986 whole entry): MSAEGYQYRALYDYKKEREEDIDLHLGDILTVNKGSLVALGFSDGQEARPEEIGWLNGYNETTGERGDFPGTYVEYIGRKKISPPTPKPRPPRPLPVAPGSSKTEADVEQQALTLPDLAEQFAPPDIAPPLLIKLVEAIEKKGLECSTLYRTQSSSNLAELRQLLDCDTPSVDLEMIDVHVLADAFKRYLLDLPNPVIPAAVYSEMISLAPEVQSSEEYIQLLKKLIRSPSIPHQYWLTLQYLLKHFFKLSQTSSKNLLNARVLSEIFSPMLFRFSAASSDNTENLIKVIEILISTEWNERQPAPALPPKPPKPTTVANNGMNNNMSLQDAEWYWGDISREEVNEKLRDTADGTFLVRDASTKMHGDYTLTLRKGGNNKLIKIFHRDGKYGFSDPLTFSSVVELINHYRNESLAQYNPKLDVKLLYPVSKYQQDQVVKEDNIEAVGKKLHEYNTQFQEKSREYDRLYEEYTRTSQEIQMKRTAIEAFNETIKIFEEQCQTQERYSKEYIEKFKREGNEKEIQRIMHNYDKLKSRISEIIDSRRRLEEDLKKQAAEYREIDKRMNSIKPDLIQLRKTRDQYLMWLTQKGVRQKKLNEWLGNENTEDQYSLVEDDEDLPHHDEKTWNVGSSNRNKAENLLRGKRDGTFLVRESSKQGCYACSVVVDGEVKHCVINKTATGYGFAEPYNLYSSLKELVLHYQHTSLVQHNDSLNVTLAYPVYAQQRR
Sequence (P42336 whole entry): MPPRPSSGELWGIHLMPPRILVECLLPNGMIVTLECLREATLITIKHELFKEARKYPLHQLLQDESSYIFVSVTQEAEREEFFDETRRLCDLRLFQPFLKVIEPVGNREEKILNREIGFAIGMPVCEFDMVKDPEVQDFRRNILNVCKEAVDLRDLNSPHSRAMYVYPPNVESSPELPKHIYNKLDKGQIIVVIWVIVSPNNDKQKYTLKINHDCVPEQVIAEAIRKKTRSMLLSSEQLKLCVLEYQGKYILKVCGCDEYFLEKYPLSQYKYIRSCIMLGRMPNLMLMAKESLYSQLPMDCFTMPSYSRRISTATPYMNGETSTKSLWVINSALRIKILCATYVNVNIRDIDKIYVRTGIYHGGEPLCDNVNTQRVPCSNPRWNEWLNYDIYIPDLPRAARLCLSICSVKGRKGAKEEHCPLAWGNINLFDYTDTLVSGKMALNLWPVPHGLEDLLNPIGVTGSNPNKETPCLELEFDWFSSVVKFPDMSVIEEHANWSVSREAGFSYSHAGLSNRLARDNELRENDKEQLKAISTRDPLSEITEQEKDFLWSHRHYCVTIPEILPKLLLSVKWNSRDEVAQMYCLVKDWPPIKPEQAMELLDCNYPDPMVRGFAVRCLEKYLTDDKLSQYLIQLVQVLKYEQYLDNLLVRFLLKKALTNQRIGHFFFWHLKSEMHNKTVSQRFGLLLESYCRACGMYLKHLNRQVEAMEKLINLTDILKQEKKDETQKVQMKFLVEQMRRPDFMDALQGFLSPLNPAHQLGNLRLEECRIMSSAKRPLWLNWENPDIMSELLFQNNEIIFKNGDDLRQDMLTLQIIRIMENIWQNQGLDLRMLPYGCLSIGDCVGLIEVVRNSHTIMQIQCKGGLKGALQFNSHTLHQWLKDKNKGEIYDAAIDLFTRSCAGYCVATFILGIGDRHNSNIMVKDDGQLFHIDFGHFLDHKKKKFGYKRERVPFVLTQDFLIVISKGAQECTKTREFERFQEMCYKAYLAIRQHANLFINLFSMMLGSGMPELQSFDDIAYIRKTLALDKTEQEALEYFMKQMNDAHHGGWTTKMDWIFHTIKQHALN
Observation Type: log10(IC50) (log10 of the value in µM)
Units before log transform: µM; reported quantity: IC50; transform: log10.

Some entries whose results are on file:
>  <Compound>
CCOC(=O)N1CCC(c2nc(-c3cccc4[nH]ccc34)nc3c2OC[C@@H]2COCCN32)(S(C)(=O)=O)CC1

>  <log10(IC50)>
0.87

$$$$
>  <Compound>
CC(C)Nc1nc2ccccc2n1-c1nc2c(c(C(C)(C)S(C)(=O)=O)n1)OC[C@@H]1COCCN21

>  <log10(IC50)>
0.82

$$$$
>  <Compound>
CS(=O)(=O)C1(c2nc(-c3cccc4[nH]ccc34)nc3c2OCC2COCCN32)CCOCC1 (stereo not drawn)

>  <log10(IC50)>
1.12

$$$$

Batch request: log10(IC50) per item, same order as input.
1. CS(=O)(=O)C1(c2nc(-c3cncc4[nH]ccc34)nc3c2OCC2COCCN32)CCOCC1 (stereo not drawn)
2. c1cc(-c2nc(-c3cccc4[nH]ccc34)c3c(n2)N2CCOCC2CO3)c2cc[nH]c2c1 (stereo not drawn)
3. CC(C)(c1nc(-c2cccc3[nH]ccc23)nc2c1OCC1COCCN21)S(C)(=O)=O (stereo not drawn)
4. CNc1nc2ccccc2n1-c1nc2c(c(C(C)(C)S(C)(=O)=O)n1)OC[C@@H]1COCCN21
5. CS(=O)(=O)C1(c2nc(-c3cccc4[nH]ccc34)nc3c2OC[C@@H]2COCCN32)CCNCC1
6. CC(C)(O)c1nc(-c2cccc3[nH]ccc23)nc2c1OCC1COCCN21 (stereo not drawn)

result:
[0.30, 0.82, 0.23, 0.28, 0.30, 0.38]

Batch request: log10(IC50) per item, same order as input.
1. CS(=O)(=O)C1(c2nc(-c3cccc4[nH]ccc34)nc3c2OC[C@@H]2COCCN32)CCC1
2. CC1(c2nc(-c3cccc4[nH]ccc34)nc3c2OCC2COCCN32)CCCS1(=O)=O (stereo not drawn)
3. CC(C)(c1nc(-c2c(F)ccc3[nH]ccc23)nc2c1OCC1COCCN21)S(C)(=O)=O (stereo not drawn)
4. CN1CCC(c2nc(-c3cccc4[nH]ccc34)nc3c2OCC2COCCN32)(S(C)(=O)=O)CC1 (stereo not drawn)
5. CS(=O)(=O)C1(c2nc(-c3cccc4[nH]ccc34)nc3c2OCC2COCCN32)CC1 (stereo not drawn)

result:
1. 0.50
2. 0.84
3. 0.90
4. 1.10
5. 0.40

Batch request: log10(IC50) per item, same order as input.
1. CC(C)(c1nc(-c2cccc3[nH]ccc23)nc2c1OCC[C@H]1COCCN21)S(C)(=O)=O
2. CS(=O)(=O)C1(c2nc(-c3ccnc4[nH]ccc34)nc3c2OCC2COCCN32)CCOCC1 (stereo not drawn)

result:
1: 1.29; 2: 0.93

* * *

target: DNA-dependent protein kinase catalytic subunit (Homo sapiens, UniProt P78527); assay: ADP Hunter Plus Assay: The kinase activity was measured by using the commercial ADP Hunter Plus assay available from DiscoveRx (#90-0083), which is a homogeneous assay to measure the accumulation of ADP, a universal product of kinase activity. The enzyme, DNA-PK was purchased from Promega (#V5811). The assay was done following the manufacturer recommendations with slight modifications: Mainly the kinase buffer was replace by 15 mM HEPES, pH 7.5, 10 mM MgCl2, 20 mM NaCl, 1 mM EGTA, 0.1 mg/mL BGG, 0.02% Tween 20. The DNA-PK was assayed in a titration experiment to determine the optimal protein concentration for the inhibition assay. To calculate the […] of the Compounds, serial 1:3 dilutions of the compounds were added to the enzyme at a fixed concentration (2 U/uL). The enzyme was preincubated with the inhibitor and 200 uM DNA substrate and then ATP was added to a final 75 uM concentration. Reaction was carried out for 1 hour at 37° C. Reagent A and B were sequentially added to the wells and plates were incubated for 30 min at RT. Fluorescence counts were read in a EnVision instrument (Perkin Elmer) with the recommended settings (550 and 590 nm as excitation and emission wavelengths, respectively).
Kindly supply the reported IC50 values for the records listed here.
Numbers only, in µM.

Some entries whose results are on file:
>  <Compound>
CS(=O)(=O)C1(c2nc(-c3ccnc4[nH]ccc34)nc3c2OCC2COCCN32)CCOCC1 (configuration not stated)

>  <Units Symbol>
µM

>  <IC50>
10

$$$$
>  <Compound>
CC(C)Nc1nc2ccccc2n1-c1nc2c(c(C(C)(C)S(C)(=O)=O)n1)OC[C@@H]1COCCN21

>  <Units Symbol>
µM

>  <IC50>
4.3

$$$$
>  <Compound>
CNc1nc2cc(Cl)ccc2n1-c1nc2c(c(C3(S(C)(=O)=O)CCC3)n1)OC[C@@H]1COCCN21

>  <Units Symbol>
µM

>  <IC50>
10

$$$$

Batch request: IC50 per item, same order as input.
1. CNc1nc2ccccc2n1-c1nc2c(c(C3(S(C)(=O)=O)CCOCC3)n1)OCC1COCCN21 (configuration not stated)
2. CCNc1nc2ccccc2n1-c1nc2c(c(C(C)(C)S(C)(=O)=O)n1)OC[C@@H]1COCCN21
3. CNc1nc2ccccc2n1-c1nc2c(c(C(C)(C)[S@TB1](C)(=O)=O)n1)OCCC1COCCN21 (configuration not stated)
4. CCCNc1nc2ccccc2n1-c1nc2c(c(C(C)(C)S(C)(=O)=O)n1)OC[C@@H]1COCCN21
5. COc1cc(-c2nc3c(c(C4(S(C)(=O)=O)CCOCC4)n2)OCC2COCCN32)c2cc[nH]c2c1 (configuration not stated)

result:
[10, 0.196, 1.88, 6.65, 10]

Batch request: IC50 per item, same order as input.
1. CS(=O)(=O)C1(c2nc(-c3cccc4[nH]ccc34)nc3c2OC[C@@H]2COCCN32)CCNCC1
2. CNc1nc2ccccc2n1-c1nc2c(c(C3(S(C)(=O)=O)CCOCC3)n1)OCCC1COCCN21 (configuration not stated)
3. CS(=O)(=O)Cc1nc(-c2cccc3[nH]ccc23)nc2c1OCC1COCCN21 (configuration not stated)
4. CC(C)(c1nc(-c2cccc3[nH]ncc23)nc2c1OC[C@H]1COCCN21)S(C)(=O)=O
5. CC(C)(O)c1nc(-c2cccc3[nH]ccc23)nc2c1OCC1COCCN21 (configuration not stated)
6. CCOC(=O)N1CCC(c2nc(-c3cccc4[nH]ccc34)nc3c2OC[C@@H]2COCCN32)(S(C)(=O)=O)CC1
7. CNc1nc2ccc(Cl)cc2n1-c1nc2c(c(C3(S(C)(=O)=O)CCC3)n1)OC[C@@H]1COCCN21
8. CS(=O)(=O)C1(c2nc(-c3cccc4[nH]ccc34)nc3c2OC[C@@H]2COCCN32)CCC1

result:
4.93
10
10
4.15
7.21
10
10
10

Batch request: IC50 per item, same order as input.
1. CC(C)(c1nc(-c2ccnc3[nH]ccc23)nc2c1OCC1COCCN21)S(C)(=O)=O (configuration not stated)
2. CNc1nc2ccccc2n1-c1nc2c(c(C(C)(C)O)n1)OCC1COCCN21 (configuration not stated)
3. CS(=O)(=O)c1cccc(-c2nc(-c3cccc4[nH]ccc34)nc3c2OCC2COCCN32)c1 (configuration not stated)
4. CC(C)(c1nc(-c2cccc3[nH]ccc23)nc2c1OCC1COCCN21)S(C)(=O)=O (configuration not stated)
5. c1cc(-c2nc(-c3cccc4[nH]ccc34)c3c(n2)N2CCOCC2CO3)c2cc[nH]c2c1 (configuration not stated)
6. CC(C)(O)c1nc(-c2cc(F)cc3[nH]ccc23)nc2c1OC[C@@H]1COCCN21
7. CC(C)(C#N)c1nc(-c2cccc3[nH]ccc23)nc2c1OCC1COCCN21 (configuration not stated)

result:
1. 2.82
2. 3.18
3. 5.04
4. 17.3
5. 10
6. 0.886
7. 10

Batch request: IC50 per item, same order as input.
1. CS(=O)(=O)C1(c2nc(-c3cc(F)cc4[nH]ccc34)nc3c2OCC2COCCN32)CCOCC1 (configuration not stated)
2. CC1(c2nc(-c3cccc4[nH]ccc34)nc3c2OCC2COCCN32)CCCS1(=O)=O (configuration not stated)
3. CS(=O)(=O)C1(c2nc(-c3c(F)ccc4[nH]ccc34)nc3c2OCC2COCCN32)CCOCC1 (configuration not stated)
4. C[S@TB17](=O)(=O)Nc1nc(-c2cccc3[nH]ccc23)nc2c1OCC1COCCN21 (configuration not stated)

result:
10
10
10
10

query: I would be grateful if you could share the reported IC50 for CNc1nc2ccccc2n1-c1nc2c(c(C(C)(C)S(C)(=O)=O)n1)OC[C@@H]1COCCN21 .
result: 1.51
